# TEST SYSTEM: NADPH oxidase 5 (Homo sapiens)
# ASSAY METHOD TEXT: NOX5-dependent H2O2 signal modulators, primary screen, NOX inhibitor project, cell-based, HEK293-NOX5, Amplex Red fluorescence (AID 1161)
# CONDITION LABEL: HEK293-NOX5, ionomycin, 45 min, higher = more signal
MEASURED PARAMETER: z-score

COMPOUND STRING: COc1cccc(C)c1NC(=O)O[C@H]1[C@H](OC(=O)Nc2ccc3c(c2)OCO3)[C@H](OC(=O)Nc2ccc3c(c2)OCO3)[C@@H](OC)O[C@@H]1CO
MEASURED NUMBER: -1.37

COMPOUND STRING: CCOC(=O)C[C@H]1[C@H](OC(=O)c2cc3ccccc3oc2=O)[C@@H](NC(=O)c2ccc(-c3ccccc3)cc2)c2cc(OCCCO)ccc2N1C(=O)Cc1ccc(OC)cc1
MEASURED NUMBER: 1.23

COMPOUND STRING: O=C1c2ccccc2[C@](Cc2ccccc2I)(C(=O)NCCN2CCOCC2)[C@H](c2ccc(CO)cc2)N1Cc1ccccc1C(F)(F)F
MEASURED NUMBER: 1.15

---

# ASSAY METHOD TEXT: anti-His antibody binders, primary screen, artefact control for SMM control protein annotation, biochemical, small-molecule microarray, 635 nm fluorescence (AID 1128);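 note: score merges feature fluorescence with signal-to-noise for each printed compound spot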
# CONDITION LABEL: anti-His Alexa647 antibody binding, higher = more signal
MEASURED PARAMETER: composite z-score

MOLECULE: C[N+](C)(C)CCCC[C@@H]1NC(=O)[C@H]2C[C@@H](C(=O)O)[C@@H](c3ccc(O)cc3)N2C1=O
MEASURED NUMBER: 1.04

MOLECULE: COC(=O)[C@@]1(Cc2ccccc2)[C@H]2c3cc(C(=O)N(C)C)n(CCF)c3C[C@H]2CN1C(=O)c1ccccc1
MEASURED NUMBER: 2.32

MOLECULE: C=C[C@@H](CO)NS(=O)(=O)c1ccc(Br)cc1
MEASURED NUMBER: -0.371

MOLECULE: C=C(/C=C\CNS(=O)(=O)c1ccc(C)cc1)[C@H](O)[C@H]1CCCN1S(=O)(=O)c1ccccc1[N+](=O)[O-]
MEASURED NUMBER: 0.721

MOLECULE: CCOC(=O)C[C@H]1[C@H](OC(=O)c2cc3ccccc3oc2=O)[C@@H](NC(=O)c2ccc(-c3ccccc3)cc2)c2cc(OCCCO)ccc2N1C(=O)Cc1ccc(OC)cc1
MEASURED NUMBER: 0.396

MOLECULE: COC(=O)C[C@H]1O[C@]2(C(=O)N(C)c3ccccc32)[C@@H](C)[C@@H]1[Si](C)(C)c1ccccc1
MEASURED NUMBER: 0.83

MOLECULE: O=C1O[C@H](c2ccccc2)[C@H](c2ccccc2)N2[C@H]1[C@@H](C(=O)N1CCCCCCC1)[C@]1(C(=O)Nc3ccc(C#CCCO)cc31)[C@H]2c1ccc(O)cc1
MEASURED NUMBER: 2.12

MOLECULE: COc1ccc(NN2C(C(O)c3ccccc3)C=CC3C(=O)N(C4CCCCC4)C(=O)C32)cc1 (stereo unspecified)
MEASURED NUMBER: 0.864

MOLECULE: Cc1ccc(S[C@]2(C(=O)NCCN3CCOCC3)CC(=O)N(C(C)C)[C@@H]2c2ccc(CO)cc2I)cc1
MEASURED NUMBER: -1.03

MOLECULE: C=C(CC1([C@@H](NP(=O)(c2ccccc2)c2ccccc2)[C@H]2C[C@@H]2CCCC)CC1)c1cccc(OC)c1
MEASURED NUMBER: 1.18

MOLECULE: CCCCCCCCCCC(O)C1C=CC2C(=O)N(C)C(=O)C2N1Nc1ccccc1 (stereo unspecified)
MEASURED NUMBER: -0.901

MOLECULE: CN1C(=O)C2CC=C(C3=CCO[C@@H]3[C@H]3CCCN3S(=O)(=O)c3ccccc3[N+](=O)[O-])CC2C1=O (stereo partly specified)
MEASURED NUMBER: -0.354

MOLECULE: O=C(NCCN1CCOCC1)[C@@H]1c2ccccc2C(=O)N(CC23CC4CC(CC(C4)C2)C3)[C@H]1c1ccc(CO)cc1
MEASURED NUMBER: 2.06

MOLECULE: COc1ccc(CCNC(=O)[C@@]2(C)c3ccccc3C(=O)N(Cc3ccc(OC(F)(F)F)cc3)[C@H]2c2ccc(CO)cc2)cc1
MEASURED NUMBER: -0.0781

MOLECULE: C=CCC(OC(C)=O)[C@@H]1[C@@H](N(Cc2cccc3ccccc23)C(=O)c2ccc(C)cc2)c2cc(OCCCO)ccc2N1C(=O)Cc1ccc2ccccc2c1 (stereo partly specified)
MEASURED NUMBER: -0.2

MOLECULE: C=CCNC(=O)[C@H]1[C@@H]2C(=O)O[C@@H](c3ccccc3)[C@@H](c3ccccc3)N2[C@@H](c2ccc(OCCO)cc2)[C@]12C(=O)Nc1ccc(C#Cc3ccc(OC)cc3)cc12
MEASURED NUMBER: 1.38

MOLECULE: C=CCC(OC(C)=O)[C@@H]1[C@@H](N(Cc2ccc(-c3ccccc3)cc2)C(=O)Cc2ccc(OC)cc2)c2cc(OCCCO)ccc2N1C(=O)Cc1ccc(OC)cc1 (stereo partly specified)
MEASURED NUMBER: 0.271

MOLECULE: COC(=O)[C@H]1N=C(c2ccc(OCCCO)cc2)O[C@H]1c1ccccc1N=[N+]=[N-]
MEASURED NUMBER: 0.608

MOLECULE: CC(C)[Si](C#Cc1ccccc1)(O[C@H](c1ccccc1)c1cn(Cc2ccccc2)nn1)C(C)C
MEASURED NUMBER: 0.409

MOLECULE: CCCC=C(CCC)[C@@H](NC(=O)c1ccc(C(=O)OC)cc1)c1ccc(C(=O)OC)cc1
MEASURED NUMBER: -0.202

MOLECULE: CC1CC/C=C\[C@H]2OC34C=CCN(CCN5CCOCC5)C(=O)[C@H]3N(C(CO)C(C)C)C(=O)[C@@H]4C2C(=O)O1 (stereo partly specified)
MEASURED NUMBER: -0.622

MOLECULE: CC(C)c1ccc(NN2C(C(O)c3ccccc3)C=CC3C(=O)N(c4ccccc4)C(=O)C32)cc1 (stereo unspecified)
MEASURED NUMBER: 0.593

MOLECULE: C=C(COC)C(=O)CC[C@@H](OC(=O)c1ccccc1-c1ccccc1C(=O)O)c1ccccc1OCCO
MEASURED NUMBER: 0.116

MOLECULE: C=CC[C@H](O)c1ccc(O)c2ccccc12
MEASURED NUMBER: 1.02

MOLECULE: CCCCC(=C=CC[C@H](O)c1cccc(OCCO)c1)C[C@H](O)c1cc(Cl)cc(Cl)c1O
MEASURED NUMBER: 0.172

MOLECULE: C=C(CCCC)/C(=C/C[C@@H](OC(C)=O)c1cccc(OCCO)c1)c1cc(C(=O)OC)ccc1OC
MEASURED NUMBER: 0.57

MOLECULE: CC(C)Cc1ccc(CN2CC[C@@H](NC(=O)c3ccccc3)C2)cc1
MEASURED NUMBER: 0.44

MOLECULE: CN(C)C(=O)[C@]1(CCS(=O)(=O)c2ccccc2)N=C(c2ccc(OCCCO)cc2)O[C@@H]1c1ccccc1CN=[N+]=[N-]
MEASURED NUMBER: 2.64

MOLECULE: O=C(c1ccccc1)N1Cc2ccccc2C[C@@]2(N=C(c3ccc(OCCCO)cc3)O[C@H]2c2ccccc2)C1=O
MEASURED NUMBER: 1.89

MOLECULE: CC(C)C(=C=CC[C@H](O)c1cccc(OCCO)c1)C[C@H](O)c1ccccn1
MEASURED NUMBER: 0.474

MOLECULE: [N-]=[N+]=NCc1ccccc1C[C@@]1(C(=O)NCCN2CCOCC2)N=C(c2ccc(OCCCO)cc2)O[C@@H]1c1ccccc1
MEASURED NUMBER: 1.42
